Known EC50 of a selection of compounds
- measurement.target: cellular TDO2 in HEK293-TDO2 cells (Homo sapiens, UniProt P48775)
- Sequence (P48775 whole entry): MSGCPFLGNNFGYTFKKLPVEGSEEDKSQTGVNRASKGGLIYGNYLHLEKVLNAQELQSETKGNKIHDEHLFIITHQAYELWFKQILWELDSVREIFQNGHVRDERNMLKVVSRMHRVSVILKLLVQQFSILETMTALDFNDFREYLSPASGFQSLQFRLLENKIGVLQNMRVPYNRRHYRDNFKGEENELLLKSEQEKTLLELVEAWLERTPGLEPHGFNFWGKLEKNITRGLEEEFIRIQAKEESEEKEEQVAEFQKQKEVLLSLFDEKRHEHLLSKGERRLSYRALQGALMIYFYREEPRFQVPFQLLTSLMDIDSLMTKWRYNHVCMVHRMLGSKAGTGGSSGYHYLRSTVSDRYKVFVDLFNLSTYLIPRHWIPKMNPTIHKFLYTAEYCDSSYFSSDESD
- measurement.protocol: 293-TDO2 cell-based assay (Kyn colorimetric)
- condition.description: 48 hours of incubation

The recorded EC50 with cellular TDO2 in HEK293-TDO2 cells (Homo sapiens, UniProt P48775) for O[C@@H](c1c(C2CC2)ccc2cncn12)[C@H]1CC[C@H](c2ccc3ncccc3c2)CC1 (single isomer, unassigned) [Example D157b] was > 10 µM

The recorded EC50 with cellular TDO2 in HEK293-TDO2 cells (Homo sapiens, UniProt P48775) for O[C@H](c1cc(Cl)cc2cncn12)[C@H]1CC[C@H](c2ccc(Cl)cc2)CC1 (single isomer, unassigned) [Example E101a] was > 10 µM

The recorded EC50 with cellular TDO2 in HEK293-TDO2 cells (Homo sapiens, UniProt P48775) for Cc1ccc([C@H]2CC[C@H]([C@H](O)c3c(C4CC4)ccn4cncc34)CC2)cc1 (single isomer, unassigned) [Example C110a] was > 10 µM

Just for reference, patent US10882856B2 is where these values come from.
